MEASUREMENT_LABEL: melting point

Known melting point results, listed for orientation:
MOLECULE: O=C(O)CCCOc1cccc(CN2CCCCC2)c1
melting point: 73 to 77 °C
//
MOLECULE: O=C1CCC(c2ccc(NN=C(CO)c3ccccc3)cc2)=NN1
melting point: 88 to 96 °C
//
MOLECULE: CC(C)[C@H](O)[C@@H](CCCCOc1ccc(Cl)cc1Cl)n1nc[nH]c1=S (racemic)
melting point: 118 °C
//
MOLECULE: OC1(c2cncc(Br)c2)CCCC1
melting point: 74 °C
//
MOLECULE: CC1c2cccn2-c2ccc(Br)cc2N1S(=O)(=O)c1ccc(O)cc1 (stereo not drawn)
melting point: 204 to 206 °C
//
MOLECULE: CC(C)Cc1nc2sc3c(NCCN4CCOCC4)ncnc3c2c2c1CCC(C)(C)C2
melting point: 190 °C
//
MOLECULE: Cc1cc(C)cc(Sc2cccc(N)c2C#N)c1
melting point: 124 to 125 °C

Req: Consider the molecule shown here: COc1ccc(N2C[C@](C)(CO)OC2=O)cc1 What is its recorded melting point?
Resp: 131 to 132 °C
